- TEST_PROTOCOL: reduction of polyQ htt aggregates in cells – imaging, exon1htt(103Q)mCFP cells, high-content imaging, primary screen (AID 483);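 note: compound exposure lasted 3 days before fixation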
- ASSAY_CONDITIONS: exon1htt(103Q)mCFP cell line, aggregate imaging, at 2 µM
Active and inactive are the calls of the source.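 Rule for the calls: active = visual image review flags a hit and inhibition of aggregation exceeds 20%; inconclusive = visual hit but inhibition at or below 20%; inactive = no hit on visual image review.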
Valid outcomes are listed here; reply with one: active, inactive

As a guide, the following entries are already answered.
INSERT INTO assay_data (compound, assigned_class) VALUES
  ('COc1ccc(S(=O)(=O)NCCSCc2ccco2)cc1Cl', 'inactive'),
  ('CCC(C)NC(=O)c1cc(-c2ccc(OC)cc2)on1 (stereo not drawn)', 'inactive'),
  ('COc1cccc(N2CCN(CC(=O)NCc3cccs3)CC2)c1', 'inactive'),
  ('O=S(=O)(c1ccc(S(=O)(=O)N(Cc2ccco2)Cc2ccccc2Cl)cc1)N1CCCC1', 'inactive'),
  ('CCCCC(CC)Cn1c2nc3ccccc3nc2c2c(=N)oc(C)nc21 (stereo not drawn)', 'inactive');

Data request: Hi, do you know how CCN(CC)CCCNC1CCS(=O)(=O)C1 (stereo not drawn) came out in this test?
Data returned: inactive

Data request: Hi, do you know how `Cc1cc(Cl)c(S(=O)(=O)N2CCN(c3ccc(F)cc3)CC2)cc1OCC(N)=O` came out in this test?
Data returned: inactive

Data request: Hi, do you know how `CS(=O)(=O)N(CC(=O)Nc1cccc(F)c1)Cc1ccccc1` came out in this test?
Data returned: inactive
